experimental-protocol: binders of probe aFST on microarray, primary screen, stem cell growth factor project, biochemical, small-molecule microarray, fluorescence 635/667 (AID 1086);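 also: score merges 667 nm fluorescence with signal-to-noise of each printed compound spot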
run-parameters: higher = more signal
Quick list: composite z-score per entry.
recorded-metric: composite z-score

- compound: "CCOC(=O)C[C@H]1[C@H](OC(=O)c2ccc(C(=O)c3ccccc3)cc2)[C@@H](NC(=O)c2ccc3ccccc3c2)c2cc(OCCCO)ccc2N1C(=O)c1ccc2ccccc2n1"
  observed: 0.392
- compound: "CN(C)CCCNC(=O)[C@@H]1c2ccccc2C(=O)N(C2Cc3ccccc3C2)[C@H]1c1ccc(CO)cc1"
  observed: 0.178
- compound: "COCCOC(=O)N1C(=O)[C@@]2(c3cc(C#CCCO)ccc31)[C@H](C(=O)N1CCc3cc(OC)c(OC)cc3C1)[C@H]1C(=O)O[C@H](c3ccccc3)[C@H](c3ccccc3)N1[C@@H]2c1ccccc1OCCO"
  observed: 0.0205
- compound: "COC(=O)C1=CC(CCCO)=CC(c2ccc(CN3CCCC3)cc2)N(Cc2sc3ccccc3c2Cl)C=C1C(=O)OC (centres undefined)"
  observed: 1.21
- compound: "CCOC(=O)C1=CCC(c2cc3ccccc3[nH]2)N(S(=O)(=O)c2ccccc2[N+](=O)[O-])C1 (centres undefined)"
  observed: 0.361
- compound: "C=C(COC)/C(=C/C[C@H](OC(=O)c1ccncc1)c1cccc(OCCO)c1)c1cnc2ccccc2c1"
  observed: 0.841
- compound: "Cc1ccc(F)cc1S(=O)(=O)N[C@@H]1CCN(Cc2ccc3[nH]ccc3c2)C1"
  observed: 0.356
- compound: "COc1ccc(CC[C@H](O)c2cccc(OCC(=O)OC(C)(C)C)c2)cc1"
  observed: 0.736
- compound: "COCCOC(=O)N1C(=O)[C@@]2(c3cc(C#CC4=CCCCC4)ccc31)[C@H](C(=O)N1CCN(c3ncccn3)CC1)[C@H]1C(=O)O[C@H](c3ccccc3)[C@H](c3ccccc3)N1[C@@H]2c1ccccc1OCCO"
  observed: 0.636
- compound: "CC(=O)c1ccc(C(O)C2C=CC3C(=O)NC(=O)C3N2Nc2ccc(Cl)cc2Cl)cc1 (centres undefined)"
  observed: 0.462
- compound: "COCCOC(=O)N1C(=O)[C@@]2(c3cc(C#CC4(O)CCCCCC4)ccc31)[C@H](c1ccc(OCCO)cc1)N1[C@H](c3ccccc3)[C@H](c3ccccc3)OC(=O)[C@H]1[C@@H]2C(N)=O"
  observed: 0.48
- compound: "CC(C)(C)OC(=O)CC[C@]1(C(=O)N2CCOCC2)N=C(c2ccc(OCCCO)cc2)O[C@H]1c1ccccc1CN=[N+]=[N-]"
  observed: 0.474
- compound: "COC(=O)[C@@]1(Cc2ccc(F)cc2)[C@H]2c3cc(C(=O)N(C)C)n(CCO)c3C[C@H]2CN1C(=O)c1ccccc1"
  observed: 0.433
- compound: "CCCCC(=C=CC[C@@H](O)c1cccc(OCCO)c1)C[C@@H](O)COCc1ccccc1"
  observed: -0.336

====

Below, each entry is listed with its recorded composite z-score.
Test system: Human papillomavirus type 1a E7 protein (residues 1-88)
experimental-protocol: HPV1a E7 small-molecule binders, primary screen, biochemical, small-molecule microarray, residues 1-88, 635 nm (AID 1129)
run-parameters: small-molecule microarray binding, fluorescence 635 nm; higher = more signal
recorded-metric: composite z-score

- molecule: "NC(=O)NCC#Cc1ccc2c(c1)[C@]1(C(=O)N2)[C@H](C(=O)Nc2nc3ccccc3s2)[C@H]2C(=O)O[C@H](c3ccccc3)[C@H](c3ccccc3)N2[C@@H]1c1ccc(OCCO)cc1"
  assayed-system: "Human papillomavirus type 1a E7 protein (residues 1-88)"
  observed: 0.094
- molecule: "[N-]=[N+]=NCc1ccccc1C[C@]1(C(=O)N2CCCCC2)N=C(c2ccc(OCCCO)cc2)O[C@H]1c1ccccc1"
  assayed-system: "Human papillomavirus type 1a E7 protein (residues 1-88)"
  observed: 1.1
- molecule: "CC(C)C[C@H]1NC(=O)[C@H](Cc2ccccc2)NC(=O)[C@@]23C(=O)N[C@@H](Cc4ccccc4)C2[C@H](C)[C@@]2(C)O[C@H]2C3/C=C/C/C=C\\CNC1=O (some centres undefined)"
  assayed-system: "Human papillomavirus type 1a E7 protein (residues 1-88)"
  observed: 0.475
- molecule: "NCCCC[C@@H]1NC(=O)[C@H]2C[C@@H](C(=O)O)[C@@H](c3cccc(OCCO)c3)N2C1=O"
  assayed-system: "Human papillomavirus type 1a E7 protein (residues 1-88)"
  observed: 1.26

====

The following compounds are listed with their measured composite z-score values.
experimental-protocol: binders of probe aFGF10 on microarray, primary screen, stem cell growth factor project, biochemical, small-molecule microarray, fluorescence 635/667 (AID 1071);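 also: score merges 667 nm spot intensity and signal to noise from triplicate slides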
run-parameters: higher = more signal
recorded-metric: composite z-score

- compound: "CCCC=C(CCC)[C@@H](NS(=O)(=O)c1ccc(Cl)cc1)c1ccccc1"
  observed: -0.243
- compound: "Cc1c(-c2ccc(-c3ccc(Cl)c(Cl)c3)o2)nc(-c2ccccc2)c2c1CO[Si]2(C(C)C)C(C)C"
  observed: 0.42
- compound: "C#CCN(C/C=C/c1ccccc1)[C@H](CO[Si](C)(C)C(C)(C)C)c1ccccc1"
  observed: -0.284
- compound: "C=CC[C@]1(C(=O)NCCCOC)N=C(c2ccc(OCCCO)cc2)O[C@H]1c1ccccc1"
  observed: -0.179
- compound: "CC(C)C[C@H]1NC(=O)[C@@H](C)NC(=O)[C@@]23C(=O)N[C@@H](Cc4ccccc4)C2[C@H](C)[C@@]2(C)O[C@H]2C3/C=C/C/C=C\\CNC1=O (stereo not given in full)"
  observed: 0.346
- compound: "C[N+](C)(C)CCCC[C@@H]1NC(=O)[C@H]2C[C@@H](C(=O)NCCCCCNC(=O)CS)[C@@H](c3ccc(O)cc3)N2C1=O"
  observed: 0.198
- compound: "CC(C)(C)OC(=O)CC[C@]1(C(=O)N2CCOCC2)N=C(c2ccc(OCCCO)cc2)O[C@H]1c1ccccc1CN=[N+]=[N-]"
  observed: 0.286
- compound: "C=CCNC(=O)[C@@H]1[C@H]2C(=O)O[C@H](c3ccccc3)[C@H](c3ccccc3)N2[C@H](c2ccc(O)cc2)[C@@]12C(=O)Nc1ccc(C#CC3(O)CCCCCC3)cc12"
  observed: 0.434
- compound: "[N-]=[N+]=Nc1ccccc1[C@@H]1OC(c2ccc(OCCCO)cc2)=N[C@]1(Cc1ccccc1)C(N)=O"
  observed: 0.505
- compound: "COc1ccc([Si](C)(C)[C@H]2[C@H](CCO)O[C@@]3(C(=O)N(Cc4ccc(N5CCOC5=O)cc4)c4ccccc43)[C@@H]2C)cc1"
  observed: 0.034
- compound: "COC(=O)c1c(CC[C@@H](CO)NC(=O)N[C@@H](Cc2ccccc2)Cn2cc(-c3cncn3C)nn2)oc(C(C)=O)c1C(=O)OC"
  observed: 0.716
- compound: "CCOC(=O)C1=CC[C@@H](c2ccccc2)N(S(=O)(=O)c2ccc(C)cc2)[C@H]1C#N"
  observed: 0.848
- compound: "COCCCNC(=O)[C@@H]1c2ccccc2C(=O)N(C2CCCCC2)[C@H]1c1ccc(CO)cc1"
  observed: -0.564
- compound: "CCC[C@@H]1C=C(C(=O)OCC)[C@H](c2ccccc2)N1S(=O)(=O)c1ccc(C)cc1"
  observed: 0.88
- compound: "COCCOC(=O)N1C(=O)[C@@]2(c3ccccc31)[C@H](C(N)=O)[C@H]1C(=O)O[C@H](c3ccccc3)[C@H](c3ccccc3)N1[C@@H]2c1ccc(OCCO)cc1"
  observed: 0.257

====

experimental-protocol: CREB reporter modulators under forskolin, primary screen, cell-based, PC12, CRE-LacZ reporter, forskolin-stimulated (AID 1146);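 also: PC12 cells with 6xCRE LacZ reporter stimulated by forskolin 10 µM; beta-galactosidase reporter signal reflecting CREB driven transcription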
run-parameters: luminescence, 4.5 h, higher = more signal, called active from +8 up or from −8 down
Listed below: z-score values for each entry.
recorded-metric: z-score

- mol: "CCOC(=O)C1=C[C@@H](C(C)(C)C)N(S(=O)(=O)c2ccc(C)cc2)[C@H]1c1ccccc1Cl"
  observed: 1.53
- mol: "COc1ccc(C#Cc2ccc3c(c2)[C@]2(C(=O)N3)[C@H](C(=O)Nc3nc4ccccc4s3)[C@H]3C(=O)O[C@H](c4ccccc4)[C@H](c4ccccc4)N3[C@@H]2c2ccc(OCCO)cc2)cc1"
  observed: -0.545
- mol: "Cc1ccc(S(=O)(=O)N2[C@@H](c3ccccc3)C(C(=O)O)=CC[C@H]2c2ccc(C#N)cc2)cc1"
  observed: -0.551
- mol: "CC(C)C(=C=CC[C@@H](O)c1ccc(OCCO)cc1)CCO"
  observed: -1.31

====

assayed-system: Neurogenic locus notch homolog protein 2 (Homo sapiens)
experimental-protocol: Notch2 binders on small-molecule microarrays, primary screen, biochemical, small-molecule microarray, 635 nm fluorescence, stem cell growth factors (AID 1073)
run-parameters: Notch2 binding, higher = more signal

- molecule: "C=CCC(OC(C)=O)[C@@H]1[C@@H](N(Cc2ccc(-c3ccccc3)cc2)C(=O)c2ccc(-c3ccccc3)cc2)c2cc(OCCCO)ccc2N1C(=O)c1ccc2ccccc2n1 (stereo partly drawn)"
  composite z-score: -0.332
- molecule: "CN(C)CCCC[C@@H]1NC(=O)[C@H]2C[C@@H](C(=O)NCc3ccc(F)cc3)[C@@H](c3ccc(O)cc3)N2C1=O"
  composite z-score: 0.201
- molecule: "C=CCC(OC(C)=O)[C@@H]1[C@@H](N(Cc2ccc(-c3cccc(C(F)(F)F)c3)o2)C(=O)Cc2ccc(F)cc2)c2cc(OCCCO)ccc2N1C(=O)c1ccc2ccccc2n1 (stereo partly drawn)"
  composite z-score: -0.848
- molecule: "Cc1c(NC(=O)/C(C#N)=C/c2ccc(Cl)cc2)c(=O)n(-c2ccccc2)n1C"
  composite z-score: 0.746
- molecule: "COc1ccc(CCNC(=O)[C@@H]2c3ccccc3C(=O)N(CC34CC5CC(CC(C5)C3)C4)[C@H]2c2ccc(CO)cc2)cc1"
  composite z-score: 0.703
- molecule: "C=C(COC)C(=O)CC[C@@H](OC(C)=O)c1ccc(OCCO)cc1"
  composite z-score: 0.297
- molecule: "CN1C=C(C(=O)OCCS(C)(=O)=O)C(C(=O)OCCS(C)(=O)=O)=CC(CCCO)=CC1c1ccc(CN2CCCC2)cc1 (stereo not drawn)"
  composite z-score: 1.25
- molecule: "NC(=O)[C@@]1(CCS(=O)(=O)c2ccccc2)COC(c2ccc(OCCCO)cc2)=N1"
  composite z-score: 0.963
- molecule: "COC(=O)[C@@]1(Cc2ccccc2)[C@H]2c3cc(C(=O)N4CCCC4)n(Cc4ccc(C(F)(F)F)nc4)c3C[C@H]2CN1C(=O)c1ccccc1"
  composite z-score: 1.54
- molecule: "CN(C)CCCCNC(=O)[C@H]1C[C@H]2C(=O)N[C@@H](Cc3ccccc3)C(=O)N2[C@H]1c1cccc(OCCO)c1"
  composite z-score: -0.252
- molecule: "CCCCC(O)C1C=CC2C(=O)NC(=O)C2N1Nc1ccc(Cl)cc1Cl (stereo not drawn)"
  composite z-score: 0.866
- molecule: "CC(c1ccccc1)C(O)C1C=CC2C(=O)N(c3ccccc3)C(=O)C2N1Nc1ccc(C#N)cc1 (stereo not drawn)"
  composite z-score: 1.59
- molecule: "CCOC(=O)C[C@H]1[C@H](OC(=O)c2ccc(C(=O)c3ccccc3)cc2)[C@@H](NC(=O)c2ccc3ccccc3c2)c2cc(OCCCO)ccc2N1C(=O)c1ccc2ccccc2n1"
  composite z-score: 0.5
- molecule: "CCCCN1CC=CC23O[C@@H]4C=CCOC(=O)[C@@H]4[C@H]2C(=O)N(C(CO)C(C)C)[C@@H]3C1=O (stereo partly drawn)"
  composite z-score: -0.758
- molecule: "CC(C)[Si](C#CCCCC#N)(O[C@H](c1ccccc1)c1cn([C@H](C)c2ccccc2)nn1)C(C)C"
  composite z-score: 0.792
- molecule: "COCCOC(=O)N1C(=O)[C@@]2(c3cc(C#CC4(O)CCCCCC4)ccc31)[C@H](c1ccc(OCCO)cc1)N1[C@H](c3ccccc3)[C@H](c3ccccc3)OC(=O)[C@H]1[C@@H]2C(N)=O"
  composite z-score: 0.96
- molecule: "NC(=O)NCC#Cc1ccc2c(c1)[C@]1(C(=O)N2)[C@H](C(=O)Nc2nc3ccccc3s2)[C@H]2C(=O)O[C@H](c3ccccc3)[C@H](c3ccccc3)N2[C@@H]1c1ccc(OCCO)cc1"
  composite z-score: 0.614
- molecule: "COc1ccc([Si](C)(C)[C@H]2[C@H](CCn3cc([C@H](O)c4ccccc4)nn3)O[C@@]3(C(=O)N(C)c4c(Br)cc(C)cc43)[C@@H]2C)cc1"
  composite z-score: -0.442
- molecule: "C=CCC(OC(C)=O)[C@@H]1[C@@H](N(Cc2cccc3ccccc23)C(=O)c2ccc(C)cc2)c2cc(OCCCO)ccc2N1C(=O)c1ccc2ccccc2n1 (stereo partly drawn)"
  composite z-score: -0.327
- molecule: "CC(C)N1CC=CC23O[C@@H]4C=CCCOC(=O)C4[C@H]2C(=O)N(CCCCCO)[C@@H]3C1=O (stereo partly drawn)"
  composite z-score: -0.905
- molecule: "COc1ccc(CCNC(=O)[C@@]2(Sc3ccc(C)cc3)CC(=O)N(C(C)C)[C@@H]2c2ccc(CO)cc2)cc1"
  composite z-score: -1.35
- molecule: "CC(=O)c1ccc(C(O)C2C=CC3C(=O)N(C)C(=O)C3N2NC(=O)OC(C)(C)C)cc1 (stereo not drawn)"
  composite z-score: 1.61
- molecule: "CCOC(=O)C[C@H]1[C@H](OC(=O)c2ccc(-c3ccccc3)cc2)[C@@H](NC(=O)c2ccc3ccccc3c2)c2cc(OCCCO)ccc2N1C(=O)c1ccccc1"
  composite z-score: 0.736
- molecule: "CC1(C)OC[C@@]23C=C(Br)[C@@H](C[C@H]12)[C@@]1(CO1)C3=O"
  composite z-score: 0.517
- molecule: "COCCOC(=O)N1C(=O)[C@@]2(c3cc(C#CC4(O)CCCCCC4)ccc31)[C@H](C(=O)N1CCc3cc(OC)c(OC)cc3C1)[C@H]1C(=O)O[C@H](c3ccccc3)[C@H](c3ccccc3)N1[C@@H]2c1ccc(O)cc1"
  composite z-score: 1.51
- molecule: "C=CC[C@@]1(C(=O)N(C)C)N=C(c2ccc(OCCCO)cc2)O[C@@H]1c1ccccc1"
  composite z-score: 0.515
- molecule: "C=CCN1C(=O)[C@]2(O[C@H](CCn3cc([C@H](O)c4ccccc4)nn3)[C@@H]([Si](C)(C)c3ccc(OC)cc3)[C@@H]2C)c2cc(N3C(=O)c4cccc5cccc3c45)ccc21"
  composite z-score: -0.0893
- molecule: "CC(C)=CCN(C(=O)C#Cc1ccccc1)[C@H](CO)c1ccccc1"
  composite z-score: 0.248

Each recorded value in this set is attributed to PubChem BioAssay.
